- targetOrSystem: IRAK4 (Homo sapiens)
- Construct: endogenous in cells; host or cells: THP-1 cells
- Sequence (Q9NWZ3 whole entry): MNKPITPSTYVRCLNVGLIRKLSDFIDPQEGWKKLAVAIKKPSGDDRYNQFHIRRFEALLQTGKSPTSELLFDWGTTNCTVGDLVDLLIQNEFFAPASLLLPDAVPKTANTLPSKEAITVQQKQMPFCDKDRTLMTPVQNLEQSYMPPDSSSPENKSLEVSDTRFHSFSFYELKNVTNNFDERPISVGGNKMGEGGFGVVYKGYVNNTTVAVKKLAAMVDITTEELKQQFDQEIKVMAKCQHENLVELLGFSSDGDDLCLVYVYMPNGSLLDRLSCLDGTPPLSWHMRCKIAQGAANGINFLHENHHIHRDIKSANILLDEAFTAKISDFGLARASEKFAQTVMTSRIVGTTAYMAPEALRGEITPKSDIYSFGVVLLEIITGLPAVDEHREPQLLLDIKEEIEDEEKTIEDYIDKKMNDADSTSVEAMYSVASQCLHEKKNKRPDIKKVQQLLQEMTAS
- assayName: LVL THP1 HTRF (THP1 Homogeneous Time Resolved Fluorescence)
- Format: cell-based
- runParameters: THP1 cells, 18 h incubation with compound
Lab note: compare LVL THP1 HTRF YMIN with 2%, writing T if less and F if equal or more.

Q: Say whether its LVL THP1 HTRF YMIN is strictly beneath 2%. Entry: C[C@H](C#N)Nc1cc(-n2ncc3cc(C#N)cnc32)ncc1-n1cc([C@H]2CC[C@H](CCN3CCN(c4ncc(N5CCC(=O)NC5=O)cn4)[C@H](C)C3)CC2)nn1
Ans: F

Q: Say whether its LVL THP1 HTRF YMIN is strictly beneath 2%. Entry: C[C@H](C#N)Nc1cc(-c2ccc3cc(C#N)cnn23)ncc1C(=O)N[C@H]1CC[C@H](CCN2CCN(c3ccc(C4CCC(=O)NC4=O)cc3)CC2)CC1 (some centres unmarked)
Ans: T

Q: Say whether its LVL THP1 HTRF YMIN is strictly beneath 2%. Entry: C[C@H](C#N)Nc1cc(-n2ncc3cc(C#N)cnc32)ncc1-n1cc([C@H]2CC[C@H](CCN3CCC[C@@H]4[C@H]3CCCN4c3ccc([C@@]4(C)CCC(=O)NC4=O)cc3)CC2)nn1 (single isomer, unassigned)
Ans: F

Q: Say whether its LVL THP1 HTRF YMIN is strictly beneath 2%. Entry: C[C@H](C#N)Nc1cc(-n2ncc3cc(C#N)cnc32)ncc1-n1cc(C2CCC(CCN3[C@@H](C)CN(c4ccc(C5CCC(=O)NC5=O)cc4)C[C@@H]3C)CC2)nn1 (some centres unmarked)
Ans: T

Q: Say whether its LVL THP1 HTRF YMIN is strictly beneath 2%. Entry: C[C@H](C#N)Nc1cc(-n2ncc3cncnc32)ncc1-n1cc(C2CCC(CCN3CCN(c4ccc(C5CCC(=O)NC5=O)cc4)CC3)CC2)nn1 (some centres unmarked)
Ans: F

* * *

- targetOrSystem: IRAK4 (Homo sapiens)
- Construct: endogenous in cells; host or cells: THP-1 cells
- assayName: LVL THP1 HTRF (THP1 Homogeneous Time Resolved Fluorescence)
- Assay type: cell-based
- runParameters: THP1 cells, 18 h incubation with compound, read-out: LVL THP1 HTRF EC50
Provide the reported DC50 of each item.
The reply should be a number in nM, with the unit left off.

In plain terms, C[C@H](C#N)Nc1cc(-n2ncc3cc(C#N)cnc32)ncc1-n1cc([C@H]2CC[C@H](CCN3CCN(c4ccc(N5CCC(=O)NC5=O)cc4)[C@@H](C)C3)CC2)nn1 has a documented DC50 of 40.6

In plain terms, Cc1cc(N2CC[C@H]3[C@@H]2CCN3CC[C@H]2CC[C@H](c3cn(-c4cnc(-n5ncc6cc(C#N)cnc65)cc4N[C@H](C)C#N)nn3)CC2)ccc1N1CCC(=O)NC1=O (single isomer, unassigned) [P-474] has a documented DC50 of 70

In plain terms, C[C@H](C#N)Nc1cc(Nc2ncc(C#N)cc2Cl)ncc1-n1cc([C@H]2CC[C@H](CCN3CC4(CC(c5ccc(N6CCC(=O)NC6=O)cn5)C4)C3)CC2)nn1 has a documented DC50 of 1000

In plain terms, CS(=O)(=O)N1CCC(Nc2cc(-n3ncc4cc(C#N)c(N)nc43)ncc2-n2cc([C@H]3CC[C@H](CCN4CCN(c5ccc(C6CCC(=O)NC6=O)cc5)CC4)CC3)nn2)CC1 (some centres unmarked) has a documented DC50 of 9

In plain terms, C[C@H](C#N)Nc1cc(-n2ncc3cc(C#N)cnc32)ncc1-n1cc([C@H]2CC[C@H](CCN3CCC4(C3)CN(c3ccc(N5CCC(=O)NC5=O)cc3)C4)CC2)nn1 has a documented DC50 of 92.4
